System: HEK-293T
Test description: Multiplex assay against HEK293T
Assay type: toxicity, cell-based
Study conditions: human, 24 h, 1 µM, compound concentration 1 uM, replicate 2
Could you please report measured Total Cell Count for the items listed next?
Numbers only.

Reference set (7 entries):
NC(=O)c1ccc2nc(-c3ccc(C4(N)CCC4)cc3)c(-c3ccccc3)n2n1 : 1875
CC[C@@H]1C(=O)N(C)c2cnc(Nc3ccc(C(=O)NC4CCN(C)CC4)cc3OC)nc2N1C1CCCC1 : 1114
N#CCNC(=O)c1ccc(-c2ccnc(Nc3ccc(N4CCOCC4)cc3)n2)cc1 : 260
Cc1c(Nc2ccc(S(=O)(=O)N3CCN(C)CC3)cc2F)nc2ccc(Nc3cnn(C4CC4)c3)cn2c1=O : 1100
CC(C)C[C@H](NC(=O)[C@H](Cc1ccccc1)NC(=O)CNC(=O)CNC(=O)[C@@H](N)Cc1ccc(O)cc1)C(=O)O : 294
CC[C@H](Nc1ncnc2[nH]cnc12)c1nc2cccc(F)c2c(=O)n1-c1ccccc1 : 2065
CN1C(=O)[C@@H](NC(=O)c2cc3ccccc3[nH]2)N=C(c2ccccc2)c2ccccc21 [DEVAZEPIDE] : 231

Shifting focus to the compound that follows.
Query string: Please give measured Total Cell Count of the following entry: CCOc1ccn(-c2ccc(F)cc2)c(=O)c1C(=O)Nc1ccc(Oc2ccnc(N)c2Cl)c(F)c1
Result string: 1553

----------
System: Fibroblast
Test description: Multiplex assay against human fibroblast
Type: toxicity, cell-based
Study conditions: 12 h, 10 µM, compound concentration 10 uM, replicate 2
Exercise: for every item that follows, state its recorded Population Healthy Nuclei (%).
Answers are plain numbers, in %.

Answered cases to consult:
CN(c1cc(C(F)(F)F)nc(OCCC(=O)O)n1)c1cccc2c1CCC2 : 86
N#CCNC(=O)c1ccc(-c2ccnc(Nc3ccc(N4CCOCC4)cc3)n2)cc1 : 47
Cc1c(P(=S)(c2ccccc2)c2ccccc2)n2ccccc2[n+]1C/C=C/c1ccccc1.[Br-] : 10
Cc1c(Nc2ccc(S(=O)(=O)N3CCN(C)CC3)cc2F)nc2ccc(-c3cnn(C4CC4)c3)cn2c1=O : 42
CCCc1cc(C)[nH]c(=O)c1CNC(=O)c1cc(-c2ccc(N3CCN(C(C)C)CC3)nc2)cc2c1cnn2C(C)C : 47

Items follow; give Population Healthy Nuclei (%) for each.
1. N#Cc1cccc(C(=O)Nc2cc(-c3ccccc3)nn2-c2ccccc2)c1
2. CCCCN(CC)c1nc(C)nc2c1c(C)cn2-c1c(C)cc(C)cc1C.Cl
3. NC(=O)c1ccc2nc(-c3ccc(C4(N)CCC4)cc3)c(-c3ccccc3)n2n1
4. Cc1c(Nc2ccc(S(=O)(=O)N3CCN(C)CC3)cc2F)nc2ccc(Nc3cnn(C4CC4)c3)cn2c1=O
5. CC(/C=C1\SC(=S)N(CCCC(=O)Nc2ccc(C(=O)O)c(O)c2)C1=O)=C\c1ccccc1
6. CC[C@@H]1C(=O)N(C)c2cnc(Nc3ccc(C(=O)NC4CCN(C)CC4)cc3OC)nc2N1C1CCCC1
7. Cc1ccc(NC(=O)Nc2cc(C(F)(F)F)ccc2F)cc1Nc1ccc2c(c1)NC(=O)/C2=C\c1ccc[nH]1
8. CC(C)c1cc(Nc2nc(N3CCC[C@H](N)C3)ncc2C(N)=O)cc(C(C)C)n1

Result string:
60
83
36
40
72
41
40
31

Count: 4. Required value per item: Population Healthy Nuclei (%).
1. CC(C)C[C@H](NC(=O)[C@H](Cc1ccccc1)NC(=O)CNC(=O)CNC(=O)[C@@H](N)Cc1ccc(O)cc1)C(=O)O
2. Cl.NC[C@@H]1O[C@H](C23CC4CC(CC(C4)C2)C3)Cc2c1ccc(O)c2O
3. CC(Cc1ccc(O)c(O)c1)C(C)Cc1ccc(O)c(O)c1 (configuration not stated) [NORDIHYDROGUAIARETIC ACID]
4. CC[C@H](Nc1ncnc2[nH]cnc12)c1nc2cccc(F)c2c(=O)n1-c1ccccc1

Result string:
[86, 32, 91, 33]

----------
Tested on: Fibroblast
Test description: Multiplex assay against human fibroblast
Assay type: toxicity, cell-based
Study conditions: 24 h, 1 µM, compound concentration 1 uM, replicate 1
Respond with 1 (yes) for Population Pyknosed Nuclei (%) values of 20% and above, 0 (no) for values below.

Worked examples follow.
Cc1ccc(S(=O)(=O)NC2c3ccccc3Oc3ccccc32)cc1 : 1 (yes)
CN1C(=O)[C@@H](NC(=O)c2cc3ccccc3[nH]2)N=C(c2ccccc2)c2ccccc21 [DEVAZEPIDE] : 1 (yes)
CC[C@@H]1C(=O)N(C)c2cnc(Nc3ccc(C(=O)NC4CCN(C)CC4)cc3OC)nc2N1C1CCCC1 : 0 (no)
Cl.NC[C@@H]1O[C@H](C23CC4CC(CC(C4)C2)C3)Cc2c1ccc(O)c2O : 0 (no)
C=CC(=O)Nc1cc(-n2c(=O)ccc3cnc4ccc(-c5ccc(NS(C)(=O)=O)cc5)cc4c32)ccc1C : 1 (yes)

Query string: Entry Oc1cccc(-c2nc(N3CCOCC3)c3oc4ncccc4c3n2)c1 : is its Population Pyknosed Nuclei (%) no less than 20%?
Result string: 1 (yes)

Query string: # check: Population Pyknosed Nuclei (%) of N#Cc1cccc(C(=O)Nc2cc(-c3ccccc3)nn2-c2ccccc2)c1 is greater than or equal to 20%
Result string: 1 (yes)

Query string: Determine whether this molecule has Population Pyknosed Nuclei (%) no lower than 20%: CN(c1cc(C(F)(F)F)nc(OCCC(=O)O)n1)c1cccc2c1CCC2
Result string: 1 (yes)

Query string: Decide: Population Pyknosed Nuclei (%) of CC(C)c1cc(Nc2nc(N3CCC[C@H](N)C3)ncc2C(N)=O)cc(C(C)C)n1 >= 20%?
Result string: 1 (yes)

----------
Tested on: Fibroblast
Test description: Multiplex assay against human fibroblast
Assay type: toxicity, cell-based
Study conditions: 24 h, 1 µM, compound concentration 1 uM, replicate 1
For each record, write down the corresponding Population Tubulin-Different-Phenotype (%).
Answers are plain numbers, in %.

N#Cc1cccc(C(=O)Nc2cc(-c3ccccc3)nn2-c2ccccc2)c1 : 69
CC(Cc1ccc(O)c(O)c1)C(C)Cc1ccc(O)c(O)c1 (centres undefined) [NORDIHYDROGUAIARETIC ACID] : 25
CCOc1ccn(-c2ccc(F)cc2)c(=O)c1C(=O)Nc1ccc(Oc2ccnc(N)c2Cl)c(F)c1 : 19
Cc1ccc(S(=O)(=O)NC2c3ccccc3Oc3ccccc32)cc1 : 53
NC(=O)c1ccc2nc(-c3ccc(C4(N)CCC4)cc3)c(-c3ccccc3)n2n1 : 20
C=CC(=O)Nc1cc(-n2c(=O)ccc3cnc4ccc(-c5ccc(NS(C)(=O)=O)cc5)cc4c32)ccc1C : 38
CCOC(=O)CCNc1cc(N2CCc3ccccc3CC2)nc(-c2ccccn2)n1 : 1
Cc1c(Nc2ccc(S(=O)(=O)N3CCN(C)CC3)cc2F)nc2ccc(Nc3cnn(C4CC4)c3)cn2c1=O : 38

Consider the record given below.
Query string: Supply measured Population Tubulin-Different-Phenotype (%) of Oc1cccc(-c2nc(N3CCOCC3)c3oc4ncccc4c3n2)c1 in your reply.
Result string: 30

----------
Test system: Fibroblast
Test description: Multiplex assay against human fibroblast
Assay type: toxicity, cell-based
Study conditions: 24 h, 10 µM, compound concentration 10 uM, replicate 2
Provide the reported Population Fragmented Nuclei (%) of each item.
Give bare numbers, in %.

CC[C@@H]1C(=O)N(C)c2cnc(Nc3ccc(C(=O)NC4CCN(C)CC4)cc3OC)nc2N1C1CCCC1 [BI-2536] : 57

Dear colleague, could you please provide Population Fragmented Nuclei (%) for the molecules listed below?
1. Oc1cccc(-c2nc(N3CCOCC3)c3oc4ncccc4c3n2)c1 [PI-103]
2. CC(C)c1cc(Nc2nc(N3CCC[C@H](N)C3)ncc2C(N)=O)cc(C(C)C)n1
3. CC(/C=C1\SC(=S)N(CCCC(=O)Nc2ccc(C(=O)O)c(O)c2)C1=O)=C\c1ccccc1
4. Cc1c(Nc2ccc(S(=O)(=O)N3CCN(C)CC3)cc2F)nc2ccc(Nc3cnn(C4CC4)c3)cn2c1=O

Result string:
1: 28; 2: 23; 3: 9; 4: 57

----------
Tested on: U2OS
Test description: Multiplex assay against U2OS
Format: toxicity, cell-based
Study conditions: human, 12 h, 1 µM, compound concentration 1 uM, replicate 2
The threshold is 50%. Values of Population Apoptotic (%) beneath it are tagged criterion met; values meeting or exceeding it are tagged criterion not met.

Examples with answers:
Cc1c(Nc2ccc(S(=O)(=O)N3CCN(C)CC3)cc2F)nc2ccc(-c3cnn(C4CC4)c3)cn2c1=O : criterion met
CCCc1cc(C)[nH]c(=O)c1CNC(=O)c1cc(-c2ccc(N3CCN(C(C)C)CC3)nc2)cc2c1cnn2C(C)C : criterion met
Cc1c(P(=S)(c2ccccc2)c2ccccc2)n2ccccc2[n+]1C/C=C/c1ccccc1.[Br-] : criterion not met
Oc1cccc(-c2nc(N3CCOCC3)c3oc4ncccc4c3n2)c1 : criterion met
CCCCN(CC)c1nc(C)nc2c1c(C)cn2-c1c(C)cc(C)cc1C.Cl : criterion not met
CC(/C=C1\SC(=S)N(CCCC(=O)Nc2ccc(C(=O)O)c(O)c2)C1=O)=C\c1ccccc1 : criterion met
CC[C@@H]1C(=O)N(C)c2cnc(Nc3ccc(C(=O)NC4CCN(C)CC4)cc3OC)nc2N1C1CCCC1 : criterion not met

Query string: Is the reported Population Apoptotic (%) for C=CC(=O)Nc1cc(-n2c(=O)ccc3cnc4ccc(-c5ccc(NS(C)(=O)=O)cc5)cc4c32)ccc1C strictly below 50%?
Result string: criterion met
